Assay: qHTS of pediatric cancer cell lines to identify multiple opportunities for drug repurposing: Confirmatory screen for DAOY cells (AID 1347114); note: nearly all actives have a fitted effect of over 65% in size
Conditions: DAOY medulloblastoma cells viability, cytotoxicity qHTS; series mostly up to 45.9 µM
Records with an inconclusive call do not appear. Activity calls are given as the source filed them. Calls come from the whole dose curve; as a rule, active = well fitted cell-killing curve with a large enough effect; inconclusive = small, poorly fitted or top-dose-only effect; inactive = no such curve, though single readings can be large or run the other way.
Just give me one of these, please: active, inactive

c1cnc2cc3c(cc2n1)C1CNCC3C1 | inactive
CN(C)c1ccc2nc3ccc(=[N+](C)C)cc-3sc2c1 | active

// return assay outcome for "Cc1c(C(=O)NN2CCCCC2)nn(-c2ccc(Cl)cc2Cl)c1-c1ccc(Cl)cc1"
active

---

Experiment: qHTS Screen of the MIPE 4.0 Collection Against Ewings Sarcoma (TC32) (AID 1259256); note: nearly all actives have a fitted effect of over 45% in size
Settings: TC32 Ewing sarcoma viability, CellTiter-Glo, 48 h; series mostly up to 45.8 µM
Inconclusive results are not listed. The source made the active and inactive calls. Calls come from the whole dose curve; as a rule, active = well fitted inhibition curve with a large enough effect; inconclusive = small, poorly fitted or top-dose-only effect; inactive = no such curve, though single readings can be large or run the other way.
Just give me one of these, please: active, inactive

// below: answered compounds
CCOC(=O)c1c(C)n(C)c2ccc(O)cc12 | inactive
Cc1ccc(Nc2nccc(N(C)c3ccc4c(C)n(C)nc4c3)n2)cc1S(N)(=O)=O | inactive
CC(C)C[C@H](NC(=O)[C@H](Cc1ccccc1)NC(=O)c1cnccn1)B(O)O | active
Nc1cc(C(Cl)=C(Cl)Cl)c(S(N)(=O)=O)cc1S(N)(=O)=O | inactive
COc1cc(OC)c(C(=O)CCCN2CCCC2)c(OC)c1 | inactive

// return assay outcome for "CC1=C(C(=O)O)N2C(=O)[C@@H](NC(=O)[C@H](N)C3=CCC=CC3)[C@H]2SC1"
inactive

// return assay outcome for "CN(C)c1ccc2nc3ccc(=[N+](C)C)cc-3sc2c1"
active

// return assay outcome for "CCN(CC)C(=S)SSC(=S)N(CC)CC"
inactive

// return assay outcome for "NNc1nncc2ccccc12"
inactive

// return assay outcome for "O=c1oc2cc(O)ccc2s1"
active

// return assay outcome for "O=C(NOCC1CC1)c1ccc(F)c(F)c1Nc1ccc(I)cc1Cl"
active

// return assay outcome for "CCN(CC)CCOc1ccc(Nc2ncc3cc(-c4c(Cl)cccc4Cl)c(=O)n(C)c3n2)cc1"
active

---

Biological target: Papain (Carica papaya) (UniProt P00784)
Sequence (P00784 whole entry, looked up): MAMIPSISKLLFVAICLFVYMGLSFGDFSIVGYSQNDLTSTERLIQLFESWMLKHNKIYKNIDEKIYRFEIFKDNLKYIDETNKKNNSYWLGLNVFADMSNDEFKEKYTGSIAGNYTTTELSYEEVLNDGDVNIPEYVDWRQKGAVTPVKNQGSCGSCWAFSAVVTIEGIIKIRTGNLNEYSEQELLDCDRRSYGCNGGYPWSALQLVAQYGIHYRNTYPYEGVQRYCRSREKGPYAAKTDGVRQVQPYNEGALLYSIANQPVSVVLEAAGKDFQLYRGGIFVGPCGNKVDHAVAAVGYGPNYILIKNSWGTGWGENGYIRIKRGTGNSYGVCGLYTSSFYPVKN
Assay: Primary qHTS assay for inhibitors of the protease papain (AID 1645873);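 note: papain turnover of Z-FR-AMC read as the AMC fluorescence gain over 10 min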
Details: papain Z-FR-AMC cleavage, AMC fluorescence; series mostly up to 49.8 µM
Results filed as inconclusive are left out. Active and inactive are the calls of the source. Calls come from the whole dose curve; as a rule, active = well fitted inhibition curve with a large enough effect; inconclusive = small, poorly fitted or top-dose-only effect; inactive = no such curve, though single readings can be large or run the other way.
Just give me one of these, please: active, inactive

CN(C)CCCC1(c2ccc(F)cc2)OCc2cc(C#N)ccc21 (configuration not stated) | inactive
CC(=O)NC[C@H]1CN(c2ccc(N3CCOCC3)c(F)c2)C(=O)O1 | inactive
COc1ccc2cc([C@H](C)C(=O)O)ccc2c1 | inactive
C[C@@H](N)C1CCC(C(=O)Nc2ccncc2)CC1 (some centres not stated) | inactive
Cc1cc(O)c2c(c1)C(=O)c1cc(O)cc(O)c1C2=O | inactive

// return assay outcome for "CNC[C@H](O)c1ccc(O)c(O)c1"
inactive

// return assay outcome for "NNc1nncc2ccccc12"
inactive

// return assay outcome for CCOC(=O)C(C)Oc1cccc2c(=O)n(CC(=O)Nc3ccc4c(c3)OCCO4)ccc12 (configuration not stated)
inactive

// return assay outcome for "Clc1ccc2c(N3CCN(CCCN4CCN(c5ccnc6cc(Cl)ccc56)CC4)CC3)ccnc2c1"
inactive

// return assay outcome for "CC1(C)NC(=O)N(c2ccc([N+](=O)[O-])c(C(F)(F)F)c2)C1=O"
inactive

// return assay outcome for "c1cnc2cc3c(cc2n1)C1CNCC3C1"
inactive

Every entry's value here was drawn from PubChem BioAssay (NCATS).
